Assay: Half life in male mouse at 1 mg/kg, iv administered as single dose measured after 4 hrs
Assay type: ADME, organism-based
Details: in vivo
outcome-measure: half-life (min)
Give the value in min but do not write min after it.

Item under review: `CC(C)(N)C(=O)N[C@H](COCc1ccccc1)C(=O)N1CCC2=NN(C3CC3)C(=O)[C@]2(Cc2ccccc2)C1` . Reported half-life?
16.2

* * *

Assay: Oral bioavailability in male dog at 2 mg/kg administered as single dose measured after 4 hrs
Type: ADME, organism-based, Canis lupus familiaris
Settings: in vivo
outcome-measure: bioavailability (%)
Give the value in % but do not write % after it.

Item under review: `CC(C)(N)C(=O)N[C@H](COCc1ccccc1)C(=O)N1CCC2=NN(C3CC3)C(=O)[C@]2(Cc2ccccc2)C1` . Reported bioavailability?
43.6

* * *

Experiment: Metabolic stability in human liver microsome assessed as intrinsic clearance at 1 uM measured upto 60 mins in presence of NADPH by LC-MS/MS analysis
Assay type: ADME
Conditions: liver microsomes, read-out: CLH
outcome-measure: microsomal CLint at 1 µM (µL/min/mg)
Give the value in µL/min/mg but do not write µL/min/mg after it.

Item under review: `CC(C)(N)C(=O)N[C@H](COCc1ccccc1)C(=O)N1CCC2=NN(C3CC3)C(=O)[C@]2(Cc2ccccc2)C1` . Reported microsomal CLint at 1 µM?
123

* * *

Target: Cytochrome P450 3A4 (Homo sapiens, UniProt P08684)
Sequence (P08684 whole entry): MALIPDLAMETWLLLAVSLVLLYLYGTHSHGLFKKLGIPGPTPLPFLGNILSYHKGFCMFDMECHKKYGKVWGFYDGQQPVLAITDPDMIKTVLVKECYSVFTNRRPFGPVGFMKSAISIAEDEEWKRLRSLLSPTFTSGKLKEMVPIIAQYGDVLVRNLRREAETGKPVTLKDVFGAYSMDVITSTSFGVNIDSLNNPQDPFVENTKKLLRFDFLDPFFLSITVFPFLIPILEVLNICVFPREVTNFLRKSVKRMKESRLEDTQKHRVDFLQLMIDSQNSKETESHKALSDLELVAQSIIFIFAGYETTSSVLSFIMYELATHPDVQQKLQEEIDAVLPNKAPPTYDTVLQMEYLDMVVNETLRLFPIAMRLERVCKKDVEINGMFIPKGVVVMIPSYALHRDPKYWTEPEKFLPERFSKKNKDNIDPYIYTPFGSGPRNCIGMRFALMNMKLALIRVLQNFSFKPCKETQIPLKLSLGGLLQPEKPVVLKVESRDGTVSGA
Assay: Inhibition of CYP3A4 in human liver microsome using midazolam as substrate incubated for 5 min in presence of NADPH by UPLC-MS/MS analysis
Format: ADME, microsomes
outcome-measure: IC50

Requested read-out IC50, target or system Cytochrome P450 3A4 (Homo sapiens, UniProt P08684), entry `CC(C)(N)C(=O)N[C@H](COCc1ccccc1)C(=O)N1CCC2=NN(C3CC3)C(=O)[C@]2(Cc2ccccc2)C1`
> 30 µM

* * *

Assay: Volume of distribution in male dog at 0.5 mg/kg, iv administered as single dose measured after 4 hrs
Format: ADME, organism-based, Canis lupus familiaris
Settings: in vivo
outcome-measure: Vd (L/kg)
Give the value in L/kg but do not write L/kg after it.

Item under review: `CC(C)(N)C(=O)N[C@H](COCc1ccccc1)C(=O)N1CCC2=NN(C3CC3)C(=O)[C@]2(Cc2ccccc2)C1` . Reported Vd?
2.88

* * *

// values below are reported pEC50
Assay: Agonist activity at monkey GHSR expressed in CHO cells incubated for 60 min by FLIPR assay
Type: cell-based
Conditions: Macaca mulatta, 1 h
Quick note: pEC50 means taking -log10 of the concentration in moles per liter.

# example entries with known answers
[
  {
    "structure-notation": "CC(C)(N)C(=O)N[C@H](COCc1ccccc1)C(=O)N1CCC2=NN(C3CCCC3)C(=O)[C@]2(Cc2ccccc2)C1",
    "pEC50": 10.29
  },
  {
    "structure-notation": "CC(C)(N)C(=O)N[C@H](COCc1ccccc1)C(=O)N1CCC2=NN(C3CCC3)C(=O)[C@]2(Cc2ccccc2)C1",
    "pEC50": 10.70
  },
  {
    "structure-notation": "CC(C)(N)C(=O)N[C@H](COCc1ccccc1)C(=O)N1CCC2=NN(C(F)(F)F)C(=O)[C@]2(Cc2ccccc2)C1",
    "pEC50": 10.21
  }
]

Continue with the compound presented below.
Item under review: `CC(C)(N)C(=O)N[C@H](COCc1ccccc1)C(=O)N1CCC2=NN(CC3CC3)C(=O)[C@]2(Cc2ccccc2)C1` . Reported pEC50?
10.47

* * *

Experiment: Elimination half life in male Sprague-Dawley rat at 1 mg/kg, iv administered as single dose measured after 4 hrs
Type: ADME, organism-based
Settings: in vivo, read-out: beta t1/2 (converted)
// values below are reported half-life
Give the value in h but do not write h after it.

# example entries with known answers
[
  {
    "structure-notation": "CC(C)(N)C(=O)N[C@H](COCc1ccccc1)C(=O)N1CCC2=NN(C3CC3)C(=O)[C@]2(Cc2ccccc2)C1",
    "unit-abbrev": "h",
    "half-life": 1.07
  },
  {
    "structure-notation": "CC(C)(N)C(=O)N[C@H](COCc1ccccc1)C(=O)N1CCC2=NN(C3CCC3)C(=O)[C@]2(Cc2ccccc2)C1",
    "unit-abbrev": "h",
    "half-life": 0.8
  },
  {
    "structure-notation": "CC(C)(N)C(=O)N[C@H](COCc1ccccc1)C(=O)N1CCC2=NN(C3CC3)C(=O)[C@]2(Cc2ccccn2)C1",
    "unit-abbrev": "h",
    "half-life": 0.8
  },
  {
    "structure-notation": "CC(C)(N)C(=O)N[C@H](COCc1ccccc1)C(=O)N1CCC2=NOC(=O)[C@]2(Cc2ccccc2)C1",
    "unit-abbrev": "h",
    "half-life": 1.44
  }
]

Continue with the molecule presented below.
Item under review: `CC(C)(N)C(=O)N[C@H](COCc1ccccc1)C(=O)N1CCC2=NN(C(F)(F)F)C(=O)[C@]2(Cc2ccccc2)C1` . Reported half-life?
2.96

* * *

Assay: Half life in male monkey at 0.5 mg/kg, iv administered as single dose measured after 4 hrs
Format: ADME, organism-based, Macaca mulatta
Conditions: rhesus monkey, in vivo
outcome-measure: half-life

Item under review: `CC(C)(N)C(=O)N[C@H](COCc1ccccc1)C(=O)N1CCC2=NN(C3CC3)C(=O)[C@]2(Cc2ccccc2)C1` . Reported half-life?
46.8 min

* * *

Test: Agonist activity at human GHSR expressed in CHO cells incubated for 60 min by FLIPR assay
Type: cell-based
Settings: 1 h
outcome-measure: EC50

[
  {
    "compound": "CC(C)(N)C(=O)N[C@H](COCc1ccccc1)C(=O)N1CCC2=NN(C3CC3)C(=O)[C@]2(Cc2ccccc2)C1",
    "EC50": "0.00055 µM"
  },
  {
    "compound": "CC(C)(N)C(=O)N[C@H](COCc1ccccc1)C(=O)N1C2CCC1[C@@]1(Cc3ccccc3)C(=O)NN=C1C2 (some centres not stated)",
    "EC50": "0.447 µM"
  },
  {
    "compound": "CN1N=C2CC3CCC(N3C(=O)[C@@H](COCc3ccccc3)NC(=O)C(C)(C)N)[C@@]2(Cc2ccccc2)C1=O (some centres not stated)",
    "EC50": "0.0104 µM"
  }
]

Item under review: `Cn1nc2c(c1-c1ccccc1)CCN(C(=O)[C@@H](COCc1ccccc1)NC(=O)C(C)(C)N)C2` . Reported EC50?
> 1 µM

Item under review: `CC(C)(N)C(=O)N[C@H](COCc1ccccc1)C(=O)N1CCC2=NN(C3COC3)C(=O)[C@]2(Cc2ccccc2)C1` . Reported EC50?
0.0147 µM

Item under review: `CC(C)(N)C(=O)N[C@H](COCc1ccccc1)C(=O)N1CCC2=NN(C3CCCCC3)C(=O)[C@]2(Cc2ccccc2)C1` . Reported EC50?
0.00263 µM

Item under review: CC1N(C(=O)[C@@H](COCc2ccccc2)NC(=O)C(C)(C)N)CCC2=NN(C)C(=O)[C@@]21Cc1ccccc1 (some centres not stated) . Reported EC50?
0.16 µM

Item under review: `CC(C)(N)C(=O)N[C@H](COCc1ccccc1)C(=O)N1CCC2=NN(C(C)(C)C)C(=O)[C@]2(Cc2ccccc2)C1` . Reported EC50?
0.00134 µM

* * *

Molecular target: Cytochrome P450 2C9 (Homo sapiens, UniProt P11712)
Sequence (P11712 whole entry): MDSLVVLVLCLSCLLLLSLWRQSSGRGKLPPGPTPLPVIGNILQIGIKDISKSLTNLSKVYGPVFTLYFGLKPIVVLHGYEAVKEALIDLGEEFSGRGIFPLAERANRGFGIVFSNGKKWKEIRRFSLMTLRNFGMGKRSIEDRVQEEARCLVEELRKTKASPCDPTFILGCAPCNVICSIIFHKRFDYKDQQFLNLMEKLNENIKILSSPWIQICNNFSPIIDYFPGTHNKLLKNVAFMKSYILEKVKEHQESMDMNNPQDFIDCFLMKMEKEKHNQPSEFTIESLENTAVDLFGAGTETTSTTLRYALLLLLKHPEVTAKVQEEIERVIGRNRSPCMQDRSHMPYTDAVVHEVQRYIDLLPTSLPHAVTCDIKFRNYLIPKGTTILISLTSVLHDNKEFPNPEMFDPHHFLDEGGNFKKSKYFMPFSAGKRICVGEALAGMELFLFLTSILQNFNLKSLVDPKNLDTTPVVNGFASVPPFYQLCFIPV
pIC50: −log10 of the molar value.
outcome-measure: pIC50

Requested read-out pIC50, target or system Cytochrome P450 2C9 (Homo sapiens, UniProt P11712), entry `CC(C)(N)C(=O)N[C@H](COCc1ccccc1)C(=O)N1CCC2=NN(C3CC3)C(=O)[C@]2(Cc2ccccc2)C1`
< 4.52

* * *

Experiment: Cmax in male monkey at 2 mg/kg, po administered as single dose measured after 4 hrs
Assay type: ADME, organism-based, Macaca mulatta
Conditions: rhesus monkey, in vivo
outcome-measure: Cmax (ng/mL)
Give the value in ng/mL but do not write ng/mL after it.

Item under review: `CC(C)(N)C(=O)N[C@H](COCc1ccccc1)C(=O)N1CCC2=NN(C3CC3)C(=O)[C@]2(Cc2ccccc2)C1` . Reported Cmax?
43.4

* * *

Experiment: Plasma protein binding in mouse assessed as unbound fraction measured after 6 hrs by dialysis method
Assay type: ADME, cell-free
outcome-measure: fraction unbound at 6 h
Returns: the value as a bare number; no unit string appended.

Item under review: `CC(C)(N)C(=O)N[C@H](COCc1ccccc1)C(=O)N1CCC2=NN(C3CC3)C(=O)[C@]2(Cc2ccccc2)C1` . Reported fraction unbound at 6 h?
0.621

* * *

Target: Cytochrome P450 3A4 (Homo sapiens)
Assay: Inhibition of CYP3A4 in human liver microsome using testosterone as substrate incubated for 5 min in presence of NADPH by UPLC-MS/MS analysis
Assay type: ADME, microsomes
outcome-measure: IC50

Item under review: `CC(C)(N)C(=O)N[C@H](COCc1ccccc1)C(=O)N1CCC2=NN(C3CC3)C(=O)[C@]2(Cc2ccccc2)C1` . Reported IC50?
> 30 µM

Reference for the values: ChEMBL document CHEMBL6103654
